Molecular target: Sphingosine 1-phosphate receptor 1 (Homo sapiens, UniProt P21453)
Sequence (P21453 whole entry): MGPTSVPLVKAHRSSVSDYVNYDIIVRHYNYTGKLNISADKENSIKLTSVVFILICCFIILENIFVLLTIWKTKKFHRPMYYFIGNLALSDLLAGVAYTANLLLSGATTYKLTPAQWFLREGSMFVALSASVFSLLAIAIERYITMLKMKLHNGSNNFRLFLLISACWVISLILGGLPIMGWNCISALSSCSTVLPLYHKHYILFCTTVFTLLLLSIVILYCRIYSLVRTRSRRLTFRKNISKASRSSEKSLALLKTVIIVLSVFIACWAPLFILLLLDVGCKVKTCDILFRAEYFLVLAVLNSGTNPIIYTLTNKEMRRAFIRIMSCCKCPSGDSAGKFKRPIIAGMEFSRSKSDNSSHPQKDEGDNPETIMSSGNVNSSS
Assay: Modulation of S1PR1 (unknown origin)
Could you please report measured EC50 for the items listed next?
Reply numerically in nM, unit not repeated.

Entry CCCc1ccc(COc2ccc3c(c2)CCC(CN2CC(C(=O)O)C2)=C3C)c(OC)c1 , EC50 reported as 0.0275

EC50 recorded for this compound, Cc1cc(-c2nc3cnc(Oc4cccc(Cl)c4)nc3o2)cc(C)c1OCC(=O)O , is 501

Value of EC50 reported for the compound CCOCCCC1CCc2cc(C3CCC(N)(CO)C3)ccc2C1 (stereo not given) is 2

What the record says about CCCCCCCOc1ccc(CCC(N)(CO)CO)cc1C(F)(F)F : EC50 is 0.0794

The recorded EC50 for CC(C)Cc1ccc(-c2nc(-c3ccc(CN4CC(C(=O)O)C4)c(F)c3)no2)cc1 is 10
